FYI, the data here is from patent US20240376097A1.

Target: Recombinant human Bcl-2 protein (Homo sapiens (Human))
Test: Bcl-2 TR-FRET Assay
Assay type: binding
Details: wild type Bcl-2; unit inferred; read-out: Bcl-2 WT
Measured log10 IC50 accompanies every entry in the list below.
Plainly stated, the numbers are log10 of IC50 given in nM.

Sample records with log10 IC50:
COc1ccc(CN2CCN(C3CC4(C3)CN(c3ccc(C(=O)NS(=O)(=O)c5ccc(NCC67CC8CC(C6)CC(OC)(C8)C7)c([N+](=O)[O-])c5)c(Oc5cnc6[nH]cc(F)c6c5)c3)C4)[C@H](c3ccccc3C(C)C)C2)cc1
-0.24
CC(C)c1ccccc1C1CN(Cc2ccccn2)CCN1C1CC2(CCN(c3ccc(C(=O)NS(=O)(=O)c4ccc(NC[C@H]5CC[C@](C)(O)CC5)c([N+](=O)[O-])c4)c(Oc4cnc5[nH]ccc5c4)c3)CC2)C1 (stereo partly shown)
-1.30
COc1ccc(CN2CCN(C3CC4(CCN(c5ccc(C(=O)NS(=O)(=O)c6ccc(NCC7(F)CCC(C)(O)CC7)c([N+](=O)[O-])c6)c(Oc6cnc7[nH]ccc7c6)c5)CC4)C3)[C@H](c3ccccc3C(C)C)C2)cc1 (stereo partly shown) [Example 226]
-0.77
COc1ccc(CN2CCN(C3CC4(CCN(c5ccc(C(=O)NS(=O)(=O)c6ccc(NC[C@H]7CC[C@](C)(O)CC7)c([N+](=O)[O-])c6)c(Oc6cnc7[nH]ccc7c6)c5)CC4)C3)C(c3ccccc3C(C)C)C2)cn1 (stereo partly shown)
-1.30
COc1cc(CN2CCN(C3CC4(CCN(c5ccc(C(=O)NS(=O)(=O)c6ccc(NC[C@H]7CC[C@](C)(O)CC7)c([N+](=O)[O-])c6)c(Oc6cnc7[nH]ccc7c6)c5)CC4)C3)[C@H](c3ccccc3C(C)C)C2)cc2c1OCC2(C)C
-1.00

Let us examine a further case.
Provide only the value of recorded log10 IC50 for CC(C)c1ccccc1C1CN(C2CCOCC2)CCN1C1CC2(CCN(c3ccc(C(=O)NS(=O)(=O)c4ccc(NC[C@H]5CC[C@](C)(O)CC5)c([N+](=O)[O-])c4)c(Oc4cnc5[nH]ccc5c4)c3)CC2)C1 (stereo partly shown)
-1.92

* * *

Ratio of Bcl-2 D103Y/Bcl-2 WT by entry:
Biological target: recombinant human Bcl-2 D103Y protein (Homo sapiens (Human), UniProt P10415, D103Y)
Experiment: Bcl-2-D103Y Biochemical Assay (TR-FRET)
Assay type: binding
Conditions: ratio of IC50
The answer should be a number; do not append a unit.

Item `COc1cc(CN2CCN(C3CC4(CCN(c5ccc(C(=O)NS(=O)(=O)c6ccc(NC[C@H]7CC[C@](C)(O)CC7)c([N+](=O)[O-])c6)c(Oc6cnc7[nH]cc(F)c7c6)c5)CC4)C3)[C@H](c3ccccc3C(C)C)C2)cc2c1OCCC2` : provide Ratio of Bcl-2 D103Y/Bcl-2 WT
1.0

Give the reported value of Ratio of Bcl-2 D103Y/Bcl-2 WT for this record: `COc1ccc(CN2CCN(C3CC4(CCN(c5ccc(C(=O)NS(=O)(=O)c6ccc(NC[C@H]7CC[C@](C)(O)CC7)c([N+](=O)[O-])c6)c(Oc6cc7c(F)c[nH]c7nc6C)c5)CC4)C3)[C@H](c3ccccc3C(C)C)C2)cc1`
1.1

Please report the measured Ratio of Bcl-2 D103Y/Bcl-2 WT for COc1ccc(N(C)C2CCN(C3CC4(CCN(c5ccc(C(=O)NS(=O)(=O)c6ccc(NC[C@H]7CC[C@](C)(O)CC7)c([N+](=O)[O-])c6)c(Oc6cnc7[nH]ccc7c6)c5)CC4)C3)C(c3ccccc3C(C)C)C2)cc1 (some centres unmarked)
4.1

# return recorded Ratio of Bcl-2 D103Y/Bcl-2 WT for input COc1ccc(CN2CCN(C3CC4(CCN(c5ccc(C(=O)NS(=O)(=O)c6ccc(NC[C@@H]7CN(C8COC8)CCO7)c([N+](=O)[O-])c6)c(Oc6cnc7[nH]ccc7c6)c5)CC4)C3)[C@@H](c3ccccc3C(C)C)C2)cc1 (single isomer, unassigned)
1.8

* * *

Molecular target: Recombinant human Bcl-2 protein (Homo sapiens (Human))
Assay: Bcl-2 TR-FRET Assay
Format: binding
Conditions: Bcl-2 wild type, TR-FRET; read-out: Biochemical assay (IC50, nM) Bcl-2 WT
Procedure: Biological Example: Bcl-2 TR-FRET Assay Compounds disclosed herein were tested for blocking of Bcl-2 protein with its ligand in an assay based on Time-Resolved Fluorescence Resonance Energy Transfer (TR-FRET) methodology. […] The TR-FRET signals (337 nm-520 nm-490 nm) were read on BMG PHERAstar FSX instrument. The inhibition percentage of Bcl-2 interaction with its ligand in presence of increasing concentrations of compounds was calculated based on the TR-FRET signals. […]
measurementType: IC50 (nM)
// return numeric value only (unit: nM, not printed)

COc1cc(CN2CCN(C3CC4(CCN(c5ccc(C(=O)NS(=O)(=O)c6ccc(NC[C@H]7CC[C@](C)(O)CC7)c([N+](=O)[O-])c6)c(Oc6cnc7[nH]cc(F)c7c6)c5)CC4)C3)[C@H](c3ccccc3C(C)C)C2)cc2ccoc12
0.43

In the following, a different molecule is considered.
Send back Recombinant human Bcl-2 protein (Homo sapiens (Human)) IC50 of CC(C)c1ccccc1C1CN(Cc2ccc(Cl)c(Cl)c2)CCN1C1CC2(CCN(c3ccc(C(=O)NS(=O)(=O)c4ccc(NC[C@H]5CC[C@](C)(O)CC5)c([N+](=O)[O-])c4)c(Oc4cnc5[nH]ccc5c4)c3)CC2)C1 (some centres unmarked) only.
1.6

* * *

Biological target: Recombinant human Bcl-2 protein (Homo sapiens (Human))
Assay: Bcl-2 TR-FRET Assay
Type: binding
Conditions: Bcl-2 wild type, TR-FRET; read-out: Biochemical assay (IC50, nM) Bcl-2 WT
# maps each entry to its IC50

COc1ccc(CN2CCN(C3CC4(CCN(c5ccc(C(=O)NS(=O)(=O)c6ccc(NC[C@@H]7CN(C8COC8)CCO7)c([N+](=O)[O-])c6)c(Oc6cnc7[nH]ccc7c6)c5)CC4)C3)[C@@H](c3ccccc3C(C)C)C2)cc1 (single isomer, unassigned) [Example 84]
0.028 nM

The record that follows has no IC50 shown yet.
Read off the recorded IC50 for CC(C)c1ccccc1C1CN(Cc2ccc3c(c2)CCCO3)CCN1C1CC2(CCN(c3ccc(C(=O)NS(=O)(=O)c4ccc(NC[C@H]5CC[C@](C)(O)CC5)c([N+](=O)[O-])c4)c(Oc4cnc5[nH]ccc5c4)c3)CC2)C1 (some centres unmarked) [Example 53]
0.17 nM

* * *

Target: recombinant human Bcl-2-G101V protein (Homo sapiens (Human), UniProt P10415, G101V)
Experiment: Bcl-2-G101V TR-FRET Assay
Type: binding
Conditions: Bcl-2 G101V mutant, TR-FRET; read-out: Biochemical assay (IC50, nM) Bcl-2 G101V
Experimental: Biological Example: Bcl-2-G101V TR-FRET Assay […]. The TR-FRET signals (ex337 nm, em490 nm/520 nm) were read on BMG PHERAstar FSX instrument. The inhibition percentage of Bcl-2-G101V interaction with its ligand in presence of increasing concentrations of compounds was calculated based on the ratio of fluorescence at 490 nm to that at 520 nm. The IC50 for each compound was derived from fitting the data to the four-parameter logistic equation by Graphpad Prism software or Dotmatics.
measurementType: IC50 (nM)
Provide only the numeric value, understood in nM.

COc1ccc(CN2CCN(C3CC4(CCN(c5ccc(C(=O)NS(=O)(=O)c6ccc(NC[C@H]7CC[C@](C)(O)CC7)c([N+](=O)[O-])c6)c(Oc6cnc7[nH]ccc7c6)c5)CC4)C3)C(c3ccccc3C(C)C)C2)cc1OC(F)F (some centres unmarked)
2.4

We now examine a further compound.
Specify IC50 for COc1ccc(CN2CCN(C3CC4(CCN(c5ccc(C(=O)NS(=O)(=O)c6ccc(NC[C@H]7CC[C@](C)(O)CC7)c([N+](=O)[O-])c6)c(Oc6cnc7[nH]ccc7c6)c5)CC4)C3)C(c3ccccc3C(C)C)C2)c(OC)c1 (some centres unmarked) and stop.
0.33

* * *

As shown below, each of these molecules has a reported half-life at 1 μM value.
Experiment: Metabolic Stability Study, liver microsome incubation (human)
Assay type: in vitro ADME
Conditions: human liver microsomes 0.5 mg/mL, 1 μM compound, NADPH; NA^# = very stable, beyond the detection limits; read-out: T1/2 (min) Human
Numbers only here, please. The scale is min.

Please give measured half-life at 1 μM of the following entry: `COc1cc(CN2CCN(C3CC4(CCN(c5ccc(C(=O)NS(=O)(=O)c6ccc(NC[C@H]7CC[C@](C)(O)CC7)c([N+](=O)[O-])c6)c(Oc6cnc7[nH]ccc7c6)c5)CC4)C3)[C@H](c3ccccc3C(C)C)C2)ccc1C1CC1`
372

State its half-life at 1 μM for this molecule: `COc1cc(CN2CCN(C3CC4(C3)CN(c3ccc(C(=O)NS(=O)(=O)c5ccc(NC[C@H]6CC[C@](C)(O)CC6)c([N+](=O)[O-])c5)c(Oc5cnc6[nH]ccc6c5)c3)C4)[C@H](c3ccccc3C(C)C)C2)ccc1C1CC1`
534

Determine from records and report half-life at 1 μM for CC(C)c1ccccc1C1CN(Cc2ccc(F)c(F)c2)CCN1C1CC2(CCN(c3ccc(C(=O)NS(=O)(=O)c4ccc(NC[C@H]5CC[C@](C)(O)CC5)c([N+](=O)[O-])c4)c(Oc4cnc5[nH]ccc5c4)c3)CC2)C1 (some centres unmarked)
145

Give the reported value of half-life at 1 μM for this record: CC(C)c1ccccc1C1CN(Cc2cc(F)cc(F)c2)CCN1C1CC2(CCN(c3ccc(C(=O)NS(=O)(=O)c4ccc(NC[C@H]5CC[C@](C)(O)CC5)c([N+](=O)[O-])c4)c(Oc4cnc5[nH]ccc5c4)c3)CC2)C1 (some centres unmarked)
234

Supply measured half-life at 1 μM of CC(C)c1ccccc1[C@@H]1CN(Cc2cccc3c2OCCO3)CCN1C1CC2(CCN(c3ccc(C(=O)NS(=O)(=O)c4ccc(NC[C@H]5CC[C@](C)(O)CC5)c([N+](=O)[O-])c4)c(Oc4cnc5[nH]ccc5c4)c3)CC2)C1 [Example 79a] in your reply.
253

Supply half-life at 1 μM value. Item: `COc1cc(CN2CCN(C3CC4(C3)CN(c3ccc(C(=O)NS(=O)(=O)c5ccc(NC[C@H]6CC[C@](C)(O)CC6)c([N+](=O)[O-])c5)c(Oc5cnc6[nH]cc(F)c6c5)c3)C4)[C@H](c3ccccc3C(C)C)C2)ccc1C`
344

Give me measured half-life at 1 μM, please, for this molecule: CC(C)c1ccccc1C1CN(Cc2ccc(Cl)cc2)CCN1C1CC2(CCN(c3ccc(C(=O)NS(=O)(=O)c4ccc(NC[C@H]5CC[C@](C)(O)CC5)c([N+](=O)[O-])c4)c(Oc4cnc5[nH]ccc5c4)c3)CC2)C1 (some centres unmarked)
245

Quick one: give measured half-life at 1 μM for `[2H]C([2H])([2H])Oc1ccc(CN2CCN(C3CC4(CCN(c5ccc(C(=O)NS(=O)(=O)c6ccc(NC[C@H]7CC[C@](C)(O)CC7)c([N+](=O)[O-])c6)c(Oc6cnc7[nH]cc(F)c7c6)c5)CC4)C3)[C@H](c3ccccc3C(C)C)C2)cc1OC([2H])([2H])[2H]`
247
